Target: HA1 adenosine receptor (Homo sapiens, UniProt P30542)
Sequence (P30542 whole entry): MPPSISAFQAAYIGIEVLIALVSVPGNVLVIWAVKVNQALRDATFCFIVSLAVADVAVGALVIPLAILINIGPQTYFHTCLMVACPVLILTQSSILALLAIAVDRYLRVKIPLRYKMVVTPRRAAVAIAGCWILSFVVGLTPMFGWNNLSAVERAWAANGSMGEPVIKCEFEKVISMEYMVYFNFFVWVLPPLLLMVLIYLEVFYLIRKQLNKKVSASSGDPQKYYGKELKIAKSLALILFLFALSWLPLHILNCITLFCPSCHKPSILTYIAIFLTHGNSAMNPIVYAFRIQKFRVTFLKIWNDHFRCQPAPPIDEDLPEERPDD
Assay: Human adenosine A1 receptor affinity (Ki hA1)
Format: binding
Settings: affinity to human adenosine A1 receptor
Measurement Kind: pKi
Keep it numeric: pKi is minus log10 of the concentration in mol/L.

Please review the following examples before continuing.
Name the value of pKi reported for Nc1cc(C(=O)NCc2ccccc2Br)cc2nc(-c3ccccc3)nn12 [Example 219] when tested on HA1 adenosine receptor (Homo sapiens, UniProt P30542). 6.87

System HA1 adenosine receptor (Homo sapiens, UniProt P30542). Read-out pKi. Item CC(C)N(Cc1ccccc1)C(=O)c1cc(N)n2nc(-c3ccc(Br)o3)nc2c1 [Example 26] . Report value. 7.52

// fetch pKi for Nc1cc(C(=O)N2CCCC2)cc2nc(-c3ccccc3O)nn12 [Example 118] ; system: HA1 adenosine receptor (Homo sapiens, UniProt P30542) 5.71

Give pKi; test system HA1 adenosine receptor (Homo sapiens, UniProt P30542); compound Nc1cc(C(=O)N2CCCC2)cc2nc(-c3cccs3)nn12 [Example 128] 5.83

Fill: pKi (HA1 adenosine receptor (Homo sapiens, UniProt P30542)) for this compound CN(Cc1ccccc1)C(=O)c1cc(N)n2nc(-c3ccccc3)nc2c1 [Example 152] 6.44

# lookup: HA1 adenosine receptor (Homo sapiens, UniProt P30542) pKi, key = CCN(C)C(=O)c1cc(N)n2nc(-c3ccc(Br)o3)nc2c1 [Example 264] 6.56

Please tell me the measured pKi for Nc1cc(C(=O)N2CCOCC2)cc2nc(-c3ccc(Cl)o3)nn12 [Example 237] ; system: HA1 adenosine receptor (Homo sapiens, UniProt P30542). 6.15

Supply pKi measured with HA1 adenosine receptor (Homo sapiens, UniProt P30542) for COCCN(CCOC)C(=O)c1cc(N)n2nc(-c3ccc(Br)o3)nc2c1 [Example 305] . 6.86

Next:
Give pKi; test system HA1 adenosine receptor (Homo sapiens, UniProt P30542); compound Nc1cc(C(=O)N(Cc2ccccc2)Cc2ccccc2)cc2nc(-c3ccc(Br)o3)nn12 [Example 313] 7.75

Print HA1 adenosine receptor (Homo sapiens, UniProt P30542) pKi for CC1CCC(C)N1C(=O)c1cc(N)n2nc(-c3ccc(Br)o3)nc2c1 (stereo not drawn) [Example 275] . 6.68

Supply pKi measured with HA1 adenosine receptor (Homo sapiens, UniProt P30542) for CC1CCN(C(=O)c2cc(N)n3nc(-c4nccs4)nc3c2)CC1 [Example 330] . 5.56

# return pKi for CCCCN(Cc1ccccc1)C(=O)c1cc(N)n2nc(-c3ccc(OC)s3)nc2c1 [Example 73] , test system: HA1 adenosine receptor (Homo sapiens, UniProt P30542) 6.87

Print HA1 adenosine receptor (Homo sapiens, UniProt P30542) pKi for CC(NC(=O)c1cc(N)n2nc(-c3nccs3)nc2c1)c1ccccc1 (stereo not drawn) [Example 126] . 6.63

GET pKi where system = HA1 adenosine receptor (Homo sapiens, UniProt P30542) and item = C#CCN(C)C(=O)c1cc(N)n2nc(-c3ccc(Br)o3)nc2c1 [Example 266] 6.61

----------
Molecular target: human adenosine A2A receptor (Homo sapiens)
Construct: expressed in transfected cells; host or cells: CHO cells, Semliki Forest virus expression system; membrane preparation
Assay: Human adenosine A2A receptor [3H]-SCH-58261 binding assay
Details: affinity to human adenosine A2A receptor; read-out: Ki HA2A
Protocol: Human Adenosine A2A Receptor The human adenosine A2A receptor was recombinantly expressed in chinese hamster ovary (CHO) cells using the semliki forest virus expression system. […] Assay plates were incubated for 1 hour at room temperature before centrifugation and then bound ligand determined using a Packard Topcount scintillation counter. IC50 values were calculated using a non-linear curve fitting program and Ki values calculated using the Cheng-Prussoff equation.
Item-by-item account of pKi
Hey, just a heads up that pKi is the negative log base 10 of the concentration in molar.

Solved entries (count: 4):
// fetch pKi given entry `CCN(C(=O)c1cc(N)n2nc(-c3ccc(OC)s3)nc2c1)C(C)C` 7.29

Consider the molecule `CN(Cc1ccccc1)C(=O)c1cc(N)n2nc(-c3ccc(Br)o3)nc2c1` . State its measured pKi. 8.57

Specify measured pKi for CC1CCC(C)N1C(=O)c1cc(N)n2nc(-c3nccs3)nc2c1 (stereo not drawn) . 7.21

Provide only the value of recorded pKi for `Nc1cc(C(=O)NCc2ccc(F)cc2)cc2nc(-c3ccoc3)nn12` 6.72

Others:
Look up and report measured pKi for this entry: `C[C@@H]1CC[C@@H](C)N1C(=O)c1cc(N)n2nc(-c3ccc(Br)o3)nc2c1` 8.14

Provide pKi value for the following molecule: `Cc1ccc(-c2nc3cc(C(=O)N4CCCCC4)cc(N)n3n2)s1` 7.55

----------
Target: human adenosine A2A receptor (Homo sapiens)
Construct: expressed in transfected cells; host or cells: CHO cells, Semliki Forest virus expression system; membrane preparation
Assay: Human adenosine A2A receptor [3H]-SCH-58261 binding assay
Details: affinity to human adenosine A2A receptor; read-out: Ki HA2A
Measurement Kind: Ki

# example entries with known answers
Given `Nc1cc(C(=O)N2CCSCC2)cc2nc(-c3nccs3)nn12` , report its Ki on human adenosine A2A receptor (Homo sapiens). 332 nM

Give human adenosine A2A receptor (Homo sapiens) Ki for the following molecule: `CC(C)N(Cc1ccccc1)C(=O)c1cc(N)n2nc(-c3cccn3C)nc2c1` 166 nM

Param request: Ki | system human adenosine A2A receptor (Homo sapiens) | item `Nc1cc(C(=O)NCc2ccccc2)cc2nc(-c3ccc(Br)o3)nn12` 39.7 nM

Enter measured Ki, system human adenosine A2A receptor (Homo sapiens), for the molecule shown: `Cc1ccc(-c2nc3cc(C(=O)NCc4ccccc4Br)cc(N)n3n2)s1` 22 nM

State Ki (human adenosine A2A receptor (Homo sapiens)) of `C[C@@H]1CCC[C@H](C)N1C(=O)c1cc(N)n2nc(-c3nccs3)nc2c1` . 74.7 nM

Report Ki on human adenosine A2A receptor (Homo sapiens) for this entry: `Nc1cc(C(=O)N2CC=C(c3ccccc3)CC2)cc2nc(-c3nccs3)nn12` 373 nM

Continue with the next molecule.
Specify Ki for `Nc1cc(C(=O)N2CCCC2)cc2nc(-c3ccccc3)nn12` , system human adenosine A2A receptor (Homo sapiens). 82.3 nM

----------
Biological target: HA1 adenosine receptor (Homo sapiens, UniProt P30542)
Test: Human adenosine A1 receptor affinity (Ki hA1)
Format: binding
Conditions: affinity to human adenosine A1 receptor
Reported pKi by item:
Bear in mind: pKi is minus log10 of a mol/L concentration; give just that figure.

Find the measured pKi of `Cc1ccsc1-c1nc2cc(C(=O)N(Cc3ccccc3)C(C)C)cc(N)n2n1` with HA1 adenosine receptor (Homo sapiens, UniProt P30542) as test system. 6.09

Answer briefly: pKi recorded on HA1 adenosine receptor (Homo sapiens, UniProt P30542) for `CCN(CC)C(=O)c1cc(N)n2nc(-c3ccoc3)nc2c1` 5.32

Look up HA1 adenosine receptor (Homo sapiens, UniProt P30542) data: pKi of `Nc1cc(C(=O)N2CCc3c([nH]c4ccccc34)C2)cc2nc(-c3ccc(Br)o3)nn12` , then report it. 6.54

State recorded pKi with HA1 adenosine receptor (Homo sapiens, UniProt P30542), entry `CCCN(CCC)C(=O)c1cc(N)n2nc(-c3nccs3)nc2c1` , no comment. 5.57

Answer briefly: pKi recorded on HA1 adenosine receptor (Homo sapiens, UniProt P30542) for `COc1ccccc1CNC(=O)c1cc(N)n2nc(-c3nccs3)nc2c1` 6.89

---
# return pKi for `Nc1cc(C(=O)N2CC=CC2)cc2nc(-c3ccc(Br)o3)nn12` , test system: HA1 adenosine receptor (Homo sapiens, UniProt P30542) 6.25

Name the recorded pKi of `Nc1cc(C(=O)NC2CCCCC2)cc2nc(-c3nccs3)nn12` , assay system HA1 adenosine receptor (Homo sapiens, UniProt P30542). 6.16

For HA1 adenosine receptor (Homo sapiens, UniProt P30542), give the measured pKi of the entry `Cc1ccc(-c2nc3cc(C(=O)NC4CCCCC4)cc(N)n3n2)s1` 6.84

GET pKi where system = HA1 adenosine receptor (Homo sapiens, UniProt P30542) and item = `CCCCNC(=O)c1cc(N)n2nc(-c3cccs3)nc2c1` 6.79

----------
Below is a list of entries, each paired with its recorded selectivity (A1/A2a) value.
Molecular target: human adenosine A2A receptor (Homo sapiens, UniProt P29274)
Construct: expressed in transfected cells; host or cells: CHO cells, Semliki Forest virus expression system; membrane preparation
Sequence (P29274 whole entry): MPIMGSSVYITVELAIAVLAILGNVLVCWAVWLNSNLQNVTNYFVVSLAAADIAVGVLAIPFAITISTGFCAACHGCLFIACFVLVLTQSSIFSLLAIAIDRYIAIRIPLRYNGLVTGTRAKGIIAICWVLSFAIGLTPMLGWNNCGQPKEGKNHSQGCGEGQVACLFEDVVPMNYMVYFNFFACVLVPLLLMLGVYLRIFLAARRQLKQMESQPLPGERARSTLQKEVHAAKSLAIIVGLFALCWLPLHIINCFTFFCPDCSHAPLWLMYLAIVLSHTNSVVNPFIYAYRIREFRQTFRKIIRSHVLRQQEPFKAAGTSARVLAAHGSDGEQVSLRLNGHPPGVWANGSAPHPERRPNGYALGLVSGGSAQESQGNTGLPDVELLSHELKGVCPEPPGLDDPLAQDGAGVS
Assay: Human adenosine A2A receptor [3H]-SCH-58261 binding assay
Conditions: calculated ratio of the affinity to the HA1 receptor to the HA2a receptor
Answer using only a numeral; do not append any unit.

Worked cases, answers included:
Report selectivity (A1/A2a), nothing else, for this compound: `Nc1cc(C(=O)N(Cc2ccccc2)Cc2ccccc2)cc2nc(-c3nccs3)nn12` 22.2

Output measured selectivity (A1/A2a) for this item: `Nc1cc(C(=O)NC2CCCCC2)cc2nc(-c3ccccc3)nn12` 3.2

Provide selectivity (A1/A2a) value for the following compound: `Nc1cc(C(=O)N2CC=C(c3ccccc3)CC2)cc2nc(-c3ccc(Cl)o3)nn12` 7.6

Provide measured selectivity (A1/A2a) value, entry: CC1CCCN(C(=O)c2cc(N)n3nc(-c4nccs4)nc3c2)C1 (stereo not drawn) 30.3

Please supply the value of reported selectivity (A1/A2a) for the item `NC(=O)C1CCN(C(=O)c2cc(N)n3nc(-c4ccc(Cl)o4)nc3c2)CC1` 4.5

---
Return reported selectivity (A1/A2a). Input compound: `CC(C)N(C(=O)c1cc(N)n2nc(-c3ccc(Br)o3)nc2c1)C1CCCCC1` 26.7

Answer with reported selectivity (A1/A2a) of `Nc1cc(C(=O)NCc2ccccc2)cc2nc(-c3ccccc3)nn12` 2.3

Identify measured selectivity (A1/A2a) associated with `CCCCN(Cc1ccccc1)C(=O)c1cc(N)n2nc(-c3ccc[nH]3)nc2c1` 16.9

Provide measured selectivity (A1/A2a) value, entry: `CCCN(C)C(=O)c1cc(N)n2nc(-c3nccs3)nc2c1` 29.5
